# Test system: IGROV1 ovarian
# TEST: NCI-60 one-dose screen, 48 h (100 = growth as untreated, 0 = no growth, -100 = all killed)
# TEST PARAMETERS: 10 µM unless noted
# Method: Growth inhibition of the IGROV1 human tumor cell line is measured as a screen for anti-cancer activity. Cells are grown in 96 well plates and exposed to the test compound for 48 hours. Compounds are tested at a single concentration, which is 10^-5 M for most compounds. The reported endpoint is percent growth (GI% or GIPRCNT), where numbers from 0 - 100% represent growth inhibition, and numbers from -100% - 0 represent cell death. For example, a value of 40 represents 60% growth inhibition. […]
This is part of a sample that, as a whole, favours compounds with a hit. Of some 83,000 tested, about 20% had one in any assay.
Quick rule for you: growth at 10% or higher means met, lower means not met.

>>> cat("Nc1cc(-c2c[nH]c3ccccc23)nc2cc(-c3c[nH]c4ccccc34)nn12")
"met"
>>> cat("O=c1[nH]c2ccccc2cc1CSc1ccccc1Nc1nccc(-c2ccc(C(F)(F)F)cc2)n1")
"met"
>>> cat("Nc1nc(N)c2c(n1)NC(c1ccc(C(F)(F)F)cc1)CC(c1ccc(Nc3nc(NCCO)nc(Nc4ccc(Cl)cc4)n3)cc1)=N2 (stereo not given)")
"not met"
>>> cat("CC1=C(C)C(=O)C(Nc2cccc(C(F)(F)F)c2)=C(Cl)C1=O")
"not met"
>>> cat("Cc1ccc(/C=C/c2nn3c(-c4ccco4)nnc3s2)cc1C")
"met"
>>> cat("CCN1C(=S)N(CC)C2C1NN=C1SC(c3ccccc3)=CC(=O)N12 (stereo not given)")
"met"
>>> cat("CCCC(=O)NC(c1ccc(N(CC)CC)cc1)c1cc(C)c2cccnc2c1O (stereo not given)")
"met"
>>> cat("CCCC(=O)NC(c1ccc2c(c1)OC(F)(F)O2)c1cc(C)c2cccnc2c1O (stereo not given)")
"met"
>>> cat("N#Cc1c(-c2ccc(Cl)cc2)nc2c(-c3ccccc3)c(Nc3ccccc3)nn2c1N")
"met"
>>> cat("CN(C)CCCOc1c2ccccc2nc2c1oc1ccc(Cl)cc12")
"not met"
